Tested on: COLO 205 colon
Test: NCI tumour cell line growth inhibition, 48 h
Property: TGI (µM)
Respond with the bare value in µM.

[
  {
    "Molecular String": "CCN(Cc1ccc(F)cc1)c1ccc(CO)c(C(F)(F)F)c1",
    "Property": "TGI",
    "Uom": "µM",
    "Measurement": 27.5
  }
]

Input: Data request, read-out TGI, for `O=[N+]([O-])/C=C/c1ccc(Cl)cc1Cl`
Output: 38.9

====

Test system: CAKI-1 renal
Experiment: NCI tumour cell line growth inhibition, 48 h
Reported GI50 values follow for various compounds

[
  {
    "Compound": "COc1ccc(C2CC(c3ccc(N(C)C)cc3)=NN2c2ccc(S(N)(=O)=O)cc2)cc1 (configuration not stated)",
    "Test Target": "CAKI-1 renal",
    "GI50": "3.35 µM"
  },
  {
    "Compound": "N#Cc1cccc(Nc2ncc(-c3ccccc3)o2)c1",
    "Test Target": "CAKI-1 renal",
    "GI50": "8.44 µM"
  }
]

Input: Name the reported GI50 value associated with the compound `Fc1ccc2nc(-c3nc(-c4ccccc4)n4ccccc34)[nH]c2c1`
Output: 3.38 µM

Input: Please give the result for `COc1ccc(/C=N\Nc2nc(SCC(C)C)nc(-c3ccc(OC)cc3)c2C#N)cc1` too.
Output: 1.55 µM

====

Test system: TK-10 renal
Assay: NCI tumour cell line growth inhibition, 48 h
Below, each of the compounds is paired with its reported TGI value.

Some compounds with known TGI results, for comparison:
[
  {
    "Compound": "Cc1ccc(NC(=O)/C(C#N)=C/c2ccccc2)c(C)c1",
    "Property": "TGI",
    "Measurement": "> 100 µM"
  },
  {
    "Compound": "C#CCNC(=O)NC(CCCCNC(=O)OCc1ccccc1)C(=O)OCc1ccccc1 (stereo not given)",
    "Property": "TGI",
    "Measurement": "> 93 µM"
  },
  {
    "Compound": "O=C(CO)C1CC2C=CC1C2 (stereo not given)",
    "Property": "TGI",
    "Measurement": "> 100 µM"
  },
  {
    "Compound": "O=[N+]([O-])c1cc(Cc2cc([N+](=O)[O-])c3cccnc3c2O)c(O)c2ncccc12",
    "Property": "TGI",
    "Measurement": "48.3 µM"
  }
]

Input: So what's the measured TGI for this one? COC1=C2CC(C)CC(OC)C(OC(=O)CCCN)C(C)/C=C(\C)C(OC(N)=O)C(OC)/C=C\C=C(/C)C(=O)NC(=CC1=O)C2=O (stereo not given)
Output: 20.2 µM

====

Tested on: SK-MEL-5 melanoma
Test: NCI tumour cell line growth inhibition, 48 h
Property: TGI

[
  {
    "Compound": "Cn1c(C(=O)c2cccc3ccccc23)nc2ccccc21",
    "TGI": "> 100 µM"
  },
  {
    "Compound": "OC1COC(OCc2ccccc2)C(O)C1O (stereo not given)",
    "TGI": "> 100 µM"
  },
  {
    "Compound": "COc1ccc(NC(=O)C(=O)Cc2nc3ccc(C(=O)c4ccccc4)cc3[nH]c2=O)c([N+](=O)[O-])c1",
    "TGI": "68.8 µM"
  },
  {
    "Compound": "COc1ccc(C(=O)Oc2c(C#N)sc3c2c(=O)n(-c2ccccc2)c(=S)n3-c2ccccc2)cc1",
    "TGI": "58 µM"
  },
  {
    "Compound": "O=S(=O)(O)c1ccc2cc(N=Nc3c(O)ccc4ccccc34)ccc2c1",
    "TGI": "> 100 µM"
  },
  {
    "Compound": "N#C/C(=C1\\OC(=N)C(c2ccc(Cl)cc2Cl)C1=O)c1ccc(Cl)cc1Cl (stereo not given)",
    "TGI": "> 100 µM"
  }
]

Input: For the compound `CC(=O)Nc1ccc(S(=O)(=O)NN(C)S(=O)(=O)c2ccc(C)cc2)cc1` , what TGI is on record?
Output: > 100 µM

Input: Entry `O=[N+]([O-])/C=C/c1ccc(Cl)cc1Cl` please
Output: 29.4 µM

Input: Proceed to CCOC(=O)C(Cc1ccc(N(CCCl)CCCl)cc1)NC(=O)C(Cc1ccccc1)NC(C)=O (stereo not given)
Output: > 0.486 µM

Input: And then `Nc1c(Cl)cc(-c2nc3ccccc3s2)cc1Cl` , what is it?
Output: > 100 µM

====

We begin with a simple list: items and their reported TGI.
Test system: RXF-631 renal
Assay: NCI tumour cell line growth inhibition, 48 h

For orientation, consider the following solved cases.
[
  {
    "Compound": "COc1c(CC=C(C)C)c(O)c(C(CC(C)C)c2c(O)c(CC=C(C)C)c(O)c(C(C)=O)c2O)c(O)c1C(C)=O (stereo unspecified)",
    "Property": "TGI",
    "Measurement": "6.94 µM"
  },
  {
    "Compound": "Nc1nc2ncn(CC(O)CO)c2c(=O)[nH]1 (stereo unspecified)",
    "Property": "TGI",
    "Measurement": "> 100 µM"
  },
  {
    "Compound": "CC1CCC2(C)C(CC=C(C=O)C2(O)C=O)C12CO2 (stereo unspecified)",
    "Property": "TGI",
    "Measurement": "5.77 µM"
  },
  {
    "Compound": "Cc1nnc(N/N=C(/C(=O)C(C#N)c2ccc(Cl)cc2)C(C#N)c2ccc(Cl)cc2)n1N (stereo unspecified)",
    "Property": "TGI",
    "Measurement": "35.4 µM"
  },
  {
    "Compound": "O=C(Cc1ccccc1)C(c1ccccc1)S(=O)(=O)c1ccccc1 (stereo unspecified)",
    "Property": "TGI",
    "Measurement": "> 100 µM"
  }
]

Input: Need TGI of COC(=O)CCC(NC(=S)N/N=C(\C)c1cnccn1)C(=O)OC (stereo unspecified) , thanks.
Output: > 100 µM

Input: C[C@H]1C(=O)c2c(cc(O)c(C3OC(CO)C(O)C(O)C3O)c2O)OC1c1ccc(O)c(O)c1 (stereo partly specified) , same question.
Output: > 100 µM

Input: And the next one, `C[P+]1(c2ccccc2)CCCCC1` ?
Output: > 100 µM

Input: Request: `COC(=O)c1ccc(C=C(C#N)C#N)cc1`
Output: > 100 µM

Input: Please do the same for O=c1ccn(/C=C/C(O)C(O)CO)c(=O)[nH]1 (stereo unspecified) as well.
Output: > 100 µM

Input: Another compound: N#C/C(=C1\OC(=N)C(c2ccc(Cl)cc2Cl)C1=O)c1ccc(Cl)cc1Cl (stereo unspecified)
Output: > 100 µM

====

Test system: HT29 colon
Assay: NCI tumour cell line growth inhibition, 48 h; in the data active means GI50 below about 0.43 µM; inactive means the rest
Please reply with one of these outcomes: true (1) = active, false (0) = inactive

Please review the following examples before continuing.
[
  {
    "Molecular String": "COc1ccc(-c2[nH]c3ccccc3c2/C=C(\\C#N)S(=O)(=O)c2ccccc2)cc1",
    "Class Assignment": "true (1)"
  },
  {
    "Molecular String": "O=S(=O)(O)c1ccc2cc3nn(-c4ccc(/C=C/c5ccc(-n6nc7cc8ccc(S(=O)(=O)O)cc8cc7n6)cc5S(=O)(=O)O)c(S(=O)(=O)O)c4)nc3cc2c1",
    "Class Assignment": "false (0)"
  },
  {
    "Molecular String": "COc1ccc2c(c1)C(=O)c1c-2c(=O)n(CCCN(C)C)c2cc(OC)c(OC)cc12",
    "Class Assignment": "false (0)"
  },
  {
    "Molecular String": "N#Cc1cccc(Nc2ncc(-c3ccccc3)o2)c1",
    "Class Assignment": "false (0)"
  }
]

Next, consider the following compound.
Input: Test call for this compound, please: `CC(C)N(Cc1ccc(F)cc1)c1ccc(CO)c(Cl)c1`
Output: false (0)

====

Tested on: PC-3 prostate
Assay: NCI tumour cell line growth inhibition, 48 h; in the data active = GI50 below about 0.43 µM; inactive = the rest
Would you mind answering with one of these outcomes? t for active, f for inactive

The examples below pair each entry with its known result.
[
  {
    "Molecular String": "COc1cc(-c2ncn(/C=C\\c3nnco3)n2)cc(C(F)(F)F)c1",
    "Class Assignment": "t"
  },
  {
    "Molecular String": "O=S(=O)(NCCCNc1cc(-c2cn(-c3ccccc3)nc2-c2cccc(O)c2)ccn1)c1ccc(F)cc1",
    "Class Assignment": "f"
  }
]

Input: # lookup: test call for `N#Cc1cccc(Nc2ncc(-c3ccccc3)o2)c1`
Output: f

====

Test system: MOLT-4 leukemia
Assay: NCI tumour cell line growth inhibition, 48 h
Property: TGI

Examples with their reported TGI follow.
[
  {
    "Molecule": "O=C(c1c(O)cc(O)cc1O)C1Cc2ccccc21 (stereo unspecified)",
    "TGI": "> 100 µM"
  },
  {
    "Molecule": "CCOC(=O)C(CCCNC(=O)OC(C)(C)C)N(Cc1ccc(OC)cc1OC)C(=O)CC(=O)CP(=O)(OCC)OCC (stereo unspecified)",
    "TGI": "> 100 µM"
  },
  {
    "Molecule": "O=C1C=C(C2=C(C3=CC(=O)c4ccccc4C3=O)C(=O)c3ccccc3C2=O)C(=O)c2ccccc21",
    "TGI": "2.27 µM"
  }
]

Input: Look at this molecule and give its reported TGI. `Cn1c(C(=O)c2cccc3ccccc23)nc2ccccc21`
Output: > 100 µM

Input: Request: CC(N)CC(=O)O (stereo unspecified)
Output: > 5000 µM

Input: Next entry: `c1ccc(-c2csc3ncn4cnnc4c23)cc1`
Output: > 100 µM

Input: Request: `O=c1ccc2ccccc2c2ccccc12`
Output: 20.3 µM

Input: Try the molecule CC1SC(c2ccc(Cl)cc2)N(CCc2cccs2)C1=O (stereo unspecified)
Output: 9.11 µM
